Data credit: the supplement of paper PMC9732359

Test Method Notes: protein stability index of a GFP-peptide fusion (yeast GPS) (PSI 1-4); higher = more stable; sorted into four equal gates, so the index is relative within each strain
Run Parameters: doa10∆
Quantity Name: protein stability index

                                   seq  result_value
 0           RPPVKAILQEKILSILN [ECM29]          1.46
 1            FFYLRISKKLQFSYLSS [PCI8]          1.22
 2            LSGKFSTIPTRENGKGG [ROX3]          3.28
 3          GMKVKADRDESSPYAAM [RPS14B]          1.32
 4            QRQLLVQQQQQQQLRNQ [SNF5]           2.2
 5            VSMITDHNALPQRCTFA [POP1]          2.97
 6            VDTLHNKEGTLEQREQN [SSN2]          3.14
 7           TFNNQDKGLLPYAIMET [RPO31]          1.99
 8  AADVSAVDAKQLAQIRQ [YML103C/NUP188]          2.25
 9            SMFGSDQKTGRAKSSSH [RPN4]          3.02
10    AKETHTKPSETPATIVK [YOR098C/NUP1]          3.28
11           VDSGSNDAMAGGFTAYG [RPO21]          3.26
12            KLSKILPRYQELTKEEA [SMC3]          3.16
13            TLVSTDNYFNLQLNEAE [SMX3]          2.94

---

Test Method Notes: protein stability index of a GFP-peptide fusion (yeast GPS) (PSI 1-4); higher = more stable; sorted into four equal gates, so the index is relative within each strain
Run Parameters: pdr5∆
protein stability index values, listed per item
Quantity Name: protein stability index

>>> df
                                 seq  result_value
 0          TGMSSMSPFLRKVVKPS [SRB4]          2.76
 1          VEQGYEDAFNFWFDKLV [YCG1]          2.66
 2          EDAKLKTDLELLVERLK [RPN1]          1.19
 3          YMRLWEINETEFIRCGC [RMP1]          3.46
 4         RGLTPQEFFFHAMGGRE [RPO21]          2.42
 5         SLSYMAFPNASKKNRPT [RRP40]          2.89
 6         LLKKATKPEVASDMSDE [CDC53]          2.61
 7         GKISKPRFLNKQERSKQ [PRP28]          2.46
 8         SSPEEPFMSYSPQLTAI [SNF12]          2.79
 9  ISSPIVANSPNKRLDVI [YDL088C/ASM4]          2.88
10          EGFAADDEPTTPAELVG [FAS1]          3.19
11        REKRAREKAEAEAEKKK [RPL13A]          3.62
12        SKELRAQYGIKALPIRR [RPL26A]          3.41
13         KLSISNAASQQPTPRSA [GAL11]          2.61
14          ATGHRVLIFFQMTQIMD [SNF2]          2.51
15         VNARDIPPLNKSLAMEH [CSN12]          2.67
16          RFWSFMKTQRFVSNMGF [SIR4]           1.4
17          FQTPFRRRREGKTDYYQ [RPL5]          3.31
18          SNPQHIIQPFLDNSKMD [RGR1]          2.98
19          RNLQMGLRNQNMVRNNN [GRR1]          2.72
20  KNLKPQEQLKNVKNDVS [YIL149C/MLP2]          3.21
21          EYDTPALFFDPSLNPIP [PRP8]          2.87
22         LLPPIKIELIKNNLLIP [RPN12]          2.24
23         EKAIPKDQRATTPYMTK [RPO26]          2.98
24        PSRIFYKALRGMVSHKT [RPL16A]          1.27
25          KKLDDKPSLVDVHLLES [RPN6]          1.29
26          NDFNDLNIDWSTTGDNG [MED2]          2.86
27         AAPSGNYKQLTLVGGGA [RRP43]          2.33
28          RTGPKALPDAVTIIEPK [RPS3]          3.03
29          EDAKYVINLKQIAKFVV [RPT1]           2.4

---

Test Method Notes: protein stability index of a GFP-peptide fusion (yeast GPS) (PSI 1-4); higher = more stable; sorted into four equal gates, so the index is relative within each strain
Run Parameters: ubr1∆
Quantity Name: protein stability index

In [3]: df
Out[3]:
                                  seq  result_value
 0           TGHPKGAAGAWMMNGAL [FAS2]          1.66
 1           PMLMANNDVFTIGPYRA [SSN3]          3.14
 2  PNSGTATTGGFGANQAT [YGR119C/NUP57]          2.14
 3           FQTIFSKQDLIHSLIPV [SIN4]           1.7
 4           QSNEDTFLPSYMKFSNK [RRI2]          3.18
 5           LFLNNFVSRIPIMFQDF [IRR1]          1.85
 6           LSLHTGFIENCNGSALV [MTR3]          2.74
 7          VLGNSRGVDAGKGNTFE [RPN14]           3.3
 8           TPPDDLHPYVPSSKPQE [SRB8]          3.07
 9          STLGDCLGIKDEEMLTS [GAL11]          3.04
10          ADVYAKALEGKDLKEIL [RPP1B]          3.36
11           LQQAKLRESEISQKLTN [SMC3]          2.97
12           QNFENDFSLRYISNLLY [REC8]          2.06
13           KFANQLHDEYLVSMRYP [RPN3]          2.76
14           LLSIPISCPLIGVIQLA [FAS1]          1.08
15          ARYYRTVAVLPPNWKYE [RPS13]          1.92
16         YISAELYAQLRENGLVP [SNU114]          2.73
17           NWIKPSDSEIPPLLVYK [PRP8]          2.12
18           AIALAVRLGEEDMIRSV [RPN1]          3.39
19          VAALVSLTEKFSQTVAD [ECM29]          1.67
20           LTRQPTEGRSRDGGLRL [RET1]          2.01
21          KSVRILKNKAEYLKNCP [RPC40]          3.15
22          KGEQIAIFPYQDPIFGS [ECM29]          2.23
23           MKNKAETTTEEDSENPS [ITC1]          3.31
24           NRPNTLDPALLRPGRID [RPT1]          2.61
25           GSKENYQELGSLQSSSQ [MED2]          3.12
26           HNQSPRNTYQSAMGKQA [RPB2]          2.25
27           SFTYELKQHNQNNLPPN [BRR2]           2.9
28           PNTSDNNNNSNNHNMRN [SWI1]          3.15
29           QVNIRFLLHNSEIIDTN [SRB8]           2.7
30           VQISNIPDIGDLPDTEG [PRP8]          3.23
